Listed here are compounds together with their documented EC50.
Target: FPR2 (Homo sapiens, UniProt P25090)
Construct: expressed in transfected cells; host or cells: RBL cells (RBL-FPR2)
Sequence (P25090 1-351): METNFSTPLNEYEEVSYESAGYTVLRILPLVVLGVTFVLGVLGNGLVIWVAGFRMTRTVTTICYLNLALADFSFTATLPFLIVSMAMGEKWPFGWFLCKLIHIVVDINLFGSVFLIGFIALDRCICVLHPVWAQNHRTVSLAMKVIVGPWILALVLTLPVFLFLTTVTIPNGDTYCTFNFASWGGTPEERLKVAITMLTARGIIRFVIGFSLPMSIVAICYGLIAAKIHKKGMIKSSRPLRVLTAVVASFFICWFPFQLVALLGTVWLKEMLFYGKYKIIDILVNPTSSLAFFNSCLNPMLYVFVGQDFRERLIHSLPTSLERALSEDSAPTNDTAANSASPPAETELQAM
Assay: Change in calcium activity by peptide (Fura-2) in RBL cells overexpressing FPR2
Format: cell-based
Conditions: calcium activity (Fura-2), graded per Table 3, read-out: EC50 for [Ca^2+] FPR2
Peptide text beside a SMILES is read from it.

CSCC[C@@H](NC(=O)[C@@H](NC(=O)[C@H](CCCCN)NC(=O)[C@H](Cc1ccc(O)cc1)NC(=O)[C@H](CCCNC(=N)N)NC(=O)[C@H](Cc1c[nH]c2ccccc12)NC(=O)[C@@H](N)CCCNC(=N)N)C(C)C)C(N)=O [Peptide 1] (HELM PEPTIDE1{R.W.R.Y.K.V.[dM].[am]}$$$$V2.0)
< 10 nM

QUERY: # get_value(readout='EC50', item= CCCC(=O)N[C@@H](CCCNC(=N)N)C(=O)N[C@@H](CCSC)C(=O)N[C@@H](CCCNC(=N)N)C(=O)N[C@@H](Cc1ccc(O)cc1)C(=O)N[C@@H](CCCCN)C(=O)N[C@H](C(=O)N[C@H](CCSC)C(N)=O)C(C)C [Peptide 7] (HELM PEPTIDE1{[CCCC(=O)[*:2]].R.M.R.Y.K.V.[dM].[am]}$$$$V2.0) )
RESULT: < 10 nM
